- experiment_summary: in vivo
- assay_conditions: rabbit
property_measured: concentration at 168 h (ng/mL)
Number in ng/mL, nothing else.

Q: Which value of concentration at 168 h has been reported for C[C@]12CCC(=O)C=C1CC[C@@H]1[C@@H]2[C@@H](O)C[C@@]2(C)[C@H]1CC[C@]2(O)C(=O)CO [Hydrocortisone, hydrocortisone] in the records?
Ans: 1300
